The following binders are listed with their measured kon values.
Test system: monomeric alpha-synuclein, P37840
Method summary: SPR, captured mAb
Assay conditions: remark: other sources report otherwise
Report the value in M⁻¹ s⁻¹ with no unit label.

Sample ACI-7067-1108H1-Ab1 (antibody, V domains shown) VH: EVKLVESGGGLVQPGGSMKLSCTASGFTFSDAWMNWVRQSPEKGLEWVAEIRNKAHNHATNYAESVKGRFTISGDDSKSSVYLQMNNLRAEDTGIYYCTIYSFWGQGTLVTVSA VL: SIVMTQTPKFLLVSAGDRVTITCKASQSVTNYVAWYHQKPGQSPKLLIYSASNRYSGVPDRFTGSGYGTDFTFTINTVQTEDLAVYFCQQDYRIPYTFGGGTKLEIK ; kon observed: 131000

Continuing:
The binder listed as ACI-7067-1108B11-Ab2 (antibody, V domains shown) VH: EVQLVESGGGLVQPKGSLKLSCAASGFTFNTYAMHWVRQAPGKGLEWVARIRSKGSNYATNYADSVKDRFTISRDDSQSMLYLQMNNLKTEDTAMYYCVRGHGSSYFSYWGQGTLVTVSA VL: QIVLTQSPAIMSASPGERITMTCSANSSVTYMHWYQQKSGTSPKRWIYDTSNLASGVPARFSGSGSGTSYSLTISSMEAEDAATYYCQQWKSHPPTFGAGTKLELK shows kon equal to 191000

These data points were gathered from patent US20250340623A1.
